B1: FCHO1 (parent)
chain: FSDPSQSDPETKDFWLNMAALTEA

Variants of: B1
Assay: protein stability index of a GFP-peptide fusion (GPS, HEK-293T) (PSI 1-6); higher = more stable;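 note: lentivirally expressed fusions sorted by FACS into six bins by GFP to DsRed ratio, PSI derived from sequencing read proportions per bin multiplied by bin number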
Settings: c terminus: a fixed tail appended
This section presents variants with their documented protein stability index values.

mutation label: F1M
protein stability index: 4.18

mutation label: P9Y
protein stability index: 2.65

mutation label: N17Y
protein stability index: 2.8

mutation label: S2Q
protein stability index: 2.4

mutation label: N17K
protein stability index: 2.91

mutation label: D8K
protein stability index: 2.32

mutation label: F1T
protein stability index: 4.87

mutation label: D3F
protein stability index: 2.1

mutation label: D13W
protein stability index: 1.65

mutation label: L21S
protein stability index: 2.62

mutation label: L16D
protein stability index: 5.04

mutation label: S5L
protein stability index: 2.84

mutation label: N17F
protein stability index: 1.82

mutation label: E23M
protein stability index: 2.08

mutation label: Q6Y
protein stability index: 1.81

mutation label: S5A
protein stability index: 3.03

mutation label: T22Q
protein stability index: 2.9

mutation label: A19P
protein stability index: 2.7

mutation label: D8H
protein stability index: 2.21

mutation label: F1H
protein stability index: 4.7

mutation label: P9W
protein stability index: 2.4

mutation label: A24E
protein stability index: 3.3

mutation label: E23A
protein stability index: 2.15

mutation label: D8P
protein stability index: 2.93

mutation label: E10F
protein stability index: 1.94

mutation label: S7A
protein stability index: 3.37

mutation label: K12C
protein stability index: 3.04

mutation label: S5T
protein stability index: 2.84

mutation label: F1P
protein stability index: 4.8

mutation label: D13Y
protein stability index: 2.25

mutation label: P4V
protein stability index: 2.65

mutation label: D13I
protein stability index: 1.75

mutation label: S5I
protein stability index: 2.74

mutation label: Q6E
protein stability index: 3.35

mutation label: P9V
protein stability index: 3.54

mutation label: L21W
protein stability index: 1.73

mutation label: A20C
protein stability index: 2.34

mutation label: L16G
protein stability index: 2.41

mutation label: S5C
protein stability index: 2.6

mutation label: T22G
protein stability index: 2.53

mutation label: T22E
protein stability index: 3.66

mutation label: Q6G
protein stability index: 2.25

mutation label: A24D
protein stability index: 2.8

mutation label: P4L
protein stability index: 2.45

mutation label: S7V
protein stability index: 3.29

mutation label: P4T
protein stability index: 2.23

mutation label: P4N
protein stability index: 2.04

mutation label: P4A
protein stability index: 2.81

mutation label: M18G
protein stability index: 3.27

mutation label: T11A
protein stability index: 3.11

mutation label: M18F
protein stability index: 2.78

mutation label: E23C
protein stability index: 1.63

mutation label: P9L
protein stability index: 2.77

mutation label: S7G
protein stability index: 2.6

mutation label: P4E
protein stability index: 3.37

mutation label: M18L
protein stability index: 2.57

mutation label: S5F
protein stability index: 2.27

mutation label: P9Q
protein stability index: 3.27

mutation label: E23L
protein stability index: 2.3

mutation label: F14A
protein stability index: 4.17

mutation label: A19E
protein stability index: 2.74

mutation label: F14I
protein stability index: 3.61

mutation label: D3A
protein stability index: 1.45

mutation label: S7I
protein stability index: 2.38

mutation label: W15S
protein stability index: 4.82

mutation label: D3C
protein stability index: 2.23

mutation label: A19N
protein stability index: 2.41

mutation label: F1I
protein stability index: 4.11

mutation label: S7D
protein stability index: 3.73

mutation label: S5H
protein stability index: 2.87

mutation label: P4R
protein stability index: 2.02

mutation label: L16M
protein stability index: 2.55

mutation label: S5P
protein stability index: 2.94

mutation label: S7T
protein stability index: 2.74

mutation label: A19L
protein stability index: 2.44

mutation label: P4M
protein stability index: 2.21

mutation label: D8Q
protein stability index: 2.24

mutation label: D13T
protein stability index: 2.37

mutation label: D13F
protein stability index: 1.88

mutation label: W15I
protein stability index: 4.43

mutation label: A24H
protein stability index: 2.89

mutation label: A20V
protein stability index: 2.19

mutation label: L16F
protein stability index: 2.41

mutation label: S2F
protein stability index: 2.89

mutation label: F1G
protein stability index: 4.86

mutation label: P4C
protein stability index: 1.99

mutation label: E23R
protein stability index: 3.31

mutation label: T22W
protein stability index: 3.27

mutation label: N17W
protein stability index: 2.49

mutation label: L16A
protein stability index: 2.87

mutation label: M18W
protein stability index: 3.18
